Where these numbers come from: paper PMC9482650

# TARGET_SYSTEM: SCRIB_1, Q14160
# Sequence (Q14160 718-814): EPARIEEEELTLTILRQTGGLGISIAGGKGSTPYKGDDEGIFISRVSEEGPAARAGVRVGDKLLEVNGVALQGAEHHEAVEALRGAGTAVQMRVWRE
# MEASUREMENT_PROTOCOL: holdup assay
# Set-up: key: below the threshold = too weak to quantify, mostly under pKd 3.1 to 4
# APPLIED_CONDITIONS: plain residues with an end cap or a label only (N-terminal biotin on a linker: ado-ado)
MEASURE: pKd

                          binder       endpoint_value
 0    SAAKVLTSMC [GHRHR, Q02643]                 4.58
 1    VKPQVSESKL [ACOT8, O14734]                 4.32
 2    FNSYSLTGYV [CLDN2, P57739]  below the threshold
 3   TLPRKRMSSI [GPRC6A, Q5T6X5]  below the threshold
 4    IPLDGETEEL [MYOZ1, Q9NP98]  below the threshold
 5    QMNQTLPVQV [EPHB3, P54753]  below the threshold
 6  LPAHHNATRL [SLC34A1, Q06495]                 3.82
 7   NLSIEKETKL [ASNSD1, Q9NWL6]                  4.3
 8    IKAIVDLTGL [TRAF2, Q12933]  below the threshold
 9    VRNLPESEEL [MYOZ3, Q8TDC0]  below the threshold
10   PLSPEQPTKL [TRIM50, Q86XT4]  below the threshold
11    PKRSFIESNV [TANC1, Q9C0D5]                  5.2
12   NHSSSPETTA [TRMT13, Q9NUP7]  below the threshold
13    SGSLKLMTTV [DACT1, Q9NYF0]                 3.98
14    QSPANIYYKV [EFNB1, P52799]  below the threshold
15    DDPSTAETVL [ABCA7, Q8IZY2]                 4.37
